Biological target: human EP2 prostanoid receptors (Homo sapiens, UniProt P43116)
Construct: expressed in transfected cells; host or cells: HEK-293
Sequence (P43116 whole entry): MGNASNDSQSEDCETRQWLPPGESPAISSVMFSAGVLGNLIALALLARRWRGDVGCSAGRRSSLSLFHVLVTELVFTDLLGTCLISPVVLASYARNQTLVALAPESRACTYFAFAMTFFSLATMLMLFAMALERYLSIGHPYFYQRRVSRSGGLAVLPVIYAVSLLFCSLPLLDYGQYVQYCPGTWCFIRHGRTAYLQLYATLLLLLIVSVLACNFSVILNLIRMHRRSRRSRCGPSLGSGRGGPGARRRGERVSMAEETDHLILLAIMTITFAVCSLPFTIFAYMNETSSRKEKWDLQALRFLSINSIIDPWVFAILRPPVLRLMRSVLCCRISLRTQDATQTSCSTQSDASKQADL
Assay: Agonist activity at recombinant human EP2 prostanoid receptors (cAMP in HEK-293 clones)
Type: cell-based
Settings: functional classification at EP2
property: activity (EP2 part)

> print(dat)
                              smiles.record             property  test.result
1  O=C(O)COc1cccc(NC(=O)c2cc(-c3cccc(Cl)c3)ccc2F)c1  activity (EP2 part)  EP2 Agonist
2  O=C(O)Cc1cccc(C(=O)Nc2cccc(-c3ccccc3)c2)c1  activity (EP2 part)  EP2 Agonist
3  O=C(Nc1cccc(/C=C/c2nnn[nH]2)c1)c1ccc(-c2ccccc2)o1  activity (EP2 part)  EP2 Agonist

====

Biological target: human EP2 prostanoid receptors (Homo sapiens, UniProt P43116)
Construct: expressed in transfected cells; host or cells: HEK-293
Experiment: Agonist activity at recombinant human EP2 prostanoid receptors (cAMP in HEK-293 clones)
Type: cell-based
Conditions: HEK-293 stably transfected with human EP2; cAMP accumulation; read-out: pEC50 EP2 (converted)
property: EC50

> print(dat)
                                   molecule  test.result
1  O=C(O)/C=C/c1cccc(NC(=O)c2cccc(-c3ccc(F)cc3)n2)c1 [Compound 155]     < 100 nM
2  O=C(O)Cc1cccc(C(=O)Nc2cccc(-c3ccccc3)c2)c1 [Compound 117]   < 10000 nM
3  O=C(O)c1cc2cc(NC(=O)c3ccc(-c4cccc(Cl)c4)o3)ccc2[nH]1 [Compound 72]    < 1000 nM
4  O=C(O)/C=C/c1cccc(NC(=O)c2ccc(-c3ccc4c(c3)OCO4)o2)c1 [Compound 101]     < 100 nM
5  O=C(O)COc1cccc(NC(=O)c2cccc(-c3cccc(F)c3)n2)c1 [Compound 170]     < 100 nM
6  O=C(O)Cc1cccc(NC(=O)c2ccc(-c3cc(F)cc(F)c3)o2)c1 [Compound 127]     < 100 nM
7  O=C(Nc1cccc(Cc2nnn[nH]2)c1)c1ccc(-c2cccc(Cl)c2)o1 [Compound 81]     < 100 nM
8  O=C(Nc1cccc(/C=C/c2nnn[nH]2)c1)c1ccc(-c2ccccc2)o1 [Compound 89]     < 100 nM
9  O=C(O)Cc1cccc(NC(=O)c2ccc(-c3ccc(F)cc3)o2)c1 [Compound 42]     < 100 nM

====

Target: human EP4 receptor (Homo sapiens)
Construct: expressed in transfected cells
Sequence (P35408 whole entry): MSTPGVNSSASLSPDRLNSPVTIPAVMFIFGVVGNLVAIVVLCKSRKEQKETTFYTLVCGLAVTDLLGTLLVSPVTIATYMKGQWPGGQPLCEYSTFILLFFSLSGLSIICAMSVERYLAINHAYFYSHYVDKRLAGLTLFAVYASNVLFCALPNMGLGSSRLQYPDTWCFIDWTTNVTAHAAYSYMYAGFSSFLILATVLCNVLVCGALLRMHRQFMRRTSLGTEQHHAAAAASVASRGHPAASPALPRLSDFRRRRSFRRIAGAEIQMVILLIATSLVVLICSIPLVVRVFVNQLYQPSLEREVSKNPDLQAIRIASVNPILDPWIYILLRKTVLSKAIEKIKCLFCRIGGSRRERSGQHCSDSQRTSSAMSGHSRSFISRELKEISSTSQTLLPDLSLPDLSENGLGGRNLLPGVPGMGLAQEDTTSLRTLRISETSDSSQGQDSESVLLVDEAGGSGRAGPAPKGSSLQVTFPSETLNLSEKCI
Assay: Binding ability to human EP receptors ([3H]PGE2 displacement), EP4
Conditions: membranes expressing human EP4; [3H]PGE2 1 nM; Cheng-Prusoff; read-out: pKi (M) EP4 (converted)
property: Ki

> print(dat)
                              smiles.record  property  test.result
1  O=C(Nc1cccc(/C=C/c2nnn[nH]2)c1)c1ccc(-c2ccccc2)o1        Ki    > 1e-05 M
2  O=C(O)CCc1cccc(NC(=O)c2cccc(-c3cccc(F)c3)n2)c1        Ki    > 1e-05 M
3  O=C(O)Cc1cccc(NC(=O)c2ccc(-c3cccc(OC(F)(F)F)c3)o2)c1        Ki    < 1e-05 M
4  O=C(O)c1ccc(CNC(=O)c2ccc(-c3ccccc3)o2)cc1        Ki    < 1e-05 M
5  COc1cccc(-c2ccc(C(=O)Nc3cccc(CC(=O)O)c3)o2)c1        Ki    > 1e-05 M
6  O=C(O)/C=C/c1cccc(NC(=O)c2cc(-c3cccc(F)c3)ccc2F)c1        Ki    > 1e-05 M
7  O=C(O)Cc1cccc(NC(=O)c2cc(-c3ccccc3)ccc2Cl)c1        Ki    > 1e-05 M
8  O=C(O)Cc1cccc(NC(=O)c2cc(F)cc(-c3ccccc3)c2)c1        Ki    > 1e-05 M

====

Molecular target: human EP2 receptor (Homo sapiens)
Construct: expressed in transfected cells
Assay: Binding ability to human EP receptors ([3H]PGE2 displacement), EP2
Conditions: membranes expressing human EP2; [3H]PGE2 3 nM; Cheng-Prusoff; read-out: pKi (M) EP2 (converted)
# Lookup of reported Ki keyed by entry
property: Ki

> print(dat)
                                   compound  property  test.result
1  O=C(O)Cc1cccc(NC(=O)c2cccc(-c3ccc(Cl)cc3)n2)c1 [Compound 150]        Ki    < 1e-06 M
2  CC(=O)c1ccc(-c2ccc(C(=O)Nc3cccc(CC(=O)O)c3)o2)cc1 [Compound 20]        Ki    < 1e-06 M
3  O=C(O)Cc1cccc(NC(=O)c2ccc(-c3ccc(Cl)c(Cl)c3)o2)c1 [Compound 27]        Ki    < 1e-07 M
4  O=C(O)/C=C/c1cccc(NC(=O)c2ccc(-c3ccccc3)o2)c1 [Compound 61]        Ki    < 1e-07 M
5  O=C(O)Cc1cccc(NC(=O)c2ccc(-c3ccc(Cl)cc3Cl)o2)c1 [Compound 25]        Ki    < 1e-05 M
6  O=C(O)/C=C/c1cccc(NC(=O)c2csc(-c3cccc(F)c3)n2)c1 [Compound 116]        Ki    < 1e-07 M
7  O=C(O)COc1cccc(NC(=O)c2cccc(-c3cc(Cl)cc(Cl)c3)n2)c1 [Compound 133]        Ki    < 1e-07 M
8  O=C(O)Cc1cccc(NC(=O)c2cc(F)cc(-c3ccccc3)c2)c1 [Compound 52]        Ki    < 1e-06 M
9  O=C(O)Cc1cccc(NC(=O)c2cccc(-c3cccc(F)c3)n2)c1 [Compound 113]        Ki    < 1e-07 M

====

Biological target: human EP2 prostanoid receptors (Homo sapiens, UniProt P43116)
Construct: expressed in transfected cells; host or cells: HEK-293
Assay: Agonist activity at recombinant human EP2 prostanoid receptors (cAMP in HEK-293 clones)
Type: cell-based
Settings: functional classification at EP2
property: activity (EP2 part)

> print(dat)
                              smiles.record   test.result
1  O=C(O)/C=C/c1cccc(NC(=O)c2cccc(-c3cccc(F)c3)n2)c1   EP2 Agonist
2  Cn1c(C(=O)O)cc2cc(NC(=O)c3ccc(-c4ccccc4)o3)ccc21   EP2 Agonist
3  O=C(O)COc1cccc(NC(=O)c2cccc(-c3cccc(F)c3)n2)c1   EP2 Agonist
4  O=C(O)COc1cccc(NC(=O)c2cc(-c3ccc(F)cc3)ccc2F)c1   EP2 Agonist
5  O=C(O)COc1cccc(NC(=O)c2ccc(-c3cc(Cl)cc(Cl)c3)o2)c1  EP2 agonist/
6  O=C(O)Cc1cccc(NC(=O)c2cccc(-c3ccc(F)cc3)n2)c1   EP2 Agonist
7  O=C(O)Cc1cccc(NC(=O)c2cc(-c3cccc(F)c3)ccc2F)c1   EP2 Agonist
8  O=C(O)/C=C/c1cccc(NC(=O)c2ccc(-c3cccc(Cl)c3)o2)c1  EP2 agonist/
9  O=C(O)/C=C/c1cccc(NC(=O)c2cccc(-c3ccc(Cl)cc3)n2)c1   EP2 Agonist

====

Target: human EP2 prostanoid receptors (Homo sapiens, UniProt P43116)
Construct: expressed in transfected cells; host or cells: HEK-293
Test: Agonist activity at recombinant human EP2 prostanoid receptors (cAMP in HEK-293 clones)
Type: cell-based
Conditions: functional classification at EP2
property: activity (EP2 part)

> print(dat)
                              smiles.record                              study.target  test.result
1  O=C(O)Cc1cccc(NC(=O)c2cc(F)cc(-c3ccccc3)c2)c1  human EP2 prostanoid receptors (Homo sapiens, UniProt P43116)  EP2 agonist
2  O=C(O)Cc1cccc(NC(=O)c2cccc(-c3ccccc3)n2)c1  human EP2 prostanoid receptors (Homo sapiens, UniProt P43116)  EP2 agonist
3  COc1ccc(-c2ccc(C(=O)Nc3cccc(CC(=O)O)c3)o2)cc1  human EP2 prostanoid receptors (Homo sapiens, UniProt P43116)  EP2 agonist

====

Target: human EP2 prostanoid receptors (Homo sapiens, UniProt P43116)
Construct: expressed in transfected cells; host or cells: HEK-293
Test: Agonist activity at recombinant human EP2 prostanoid receptors (cAMP in HEK-293 clones)
Assay type: cell-based
Details: HEK-293 stably transfected with human EP2; cAMP accumulation; read-out: pEC50 EP2 (converted)
property: EC50

> print(dat)
                              smiles.record  property  test.result
1  O=C(O)Cc1cccc(NC(=O)c2cccc(-c3cccc(Cl)c3)n2)c1      EC50     < 100 nM
2     O=C(Nc1cccc(CCO)c1)c1ccc(-c2ccccc2)o1      EC50   < 10000 nM
3  O=C(O)/C=C/c1cccc(NC(=O)c2cc(-c3cccc(Cl)c3)ccc2F)c1      EC50     < 100 nM
4  O=C(Nc1cccc(-c2nnn[nH]2)c1)c1ccc(-c2ccccc2)o1      EC50    < 1000 nM
5  O=C(O)Cc1cccc(NC(=O)c2ccc(-c3ccccc3)o2)c1      EC50    < 1000 nM
6  CC/C(=C\c1cccc(NC(=O)c2ccc(-c3ccccc3)o2)c1)C(=O)O      EC50    < 1000 nM
7  O=C(O)COc1cccc(NC(=O)c2cc(-c3cccc(Cl)c3)ccc2F)c1      EC50     < 100 nM
8  O=C(O)CCc1cccc(NC(=O)c2ccc(-c3cccc(F)c3)o2)c1      EC50     < 100 nM
9  O=C(O)Cc1cccc(NC(=O)c2ccc(-c3ccc(Cl)cc3)o2)c1      EC50     < 100 nM
